target.under.test: human kisspeptin receptor (Homo sapiens (Human), UniProt Q969F8)
Sequence (Q969F8 whole entry): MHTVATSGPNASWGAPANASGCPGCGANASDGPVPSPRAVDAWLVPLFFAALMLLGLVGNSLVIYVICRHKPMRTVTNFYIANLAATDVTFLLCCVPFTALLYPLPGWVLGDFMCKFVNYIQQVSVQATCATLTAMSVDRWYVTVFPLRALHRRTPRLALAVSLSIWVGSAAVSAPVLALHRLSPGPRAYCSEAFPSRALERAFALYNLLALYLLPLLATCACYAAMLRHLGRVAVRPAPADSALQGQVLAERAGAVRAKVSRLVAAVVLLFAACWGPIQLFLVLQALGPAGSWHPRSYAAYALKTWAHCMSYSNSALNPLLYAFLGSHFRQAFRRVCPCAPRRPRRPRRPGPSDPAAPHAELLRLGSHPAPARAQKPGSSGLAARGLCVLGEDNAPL
test.summary: Human KISS1R binding assay (membrane competition binding)
condition.parameters: 90 min at room temperature; competition with 0.2 nM [125I]-metastin (45-54); Flp-In T-Rex 293 kisspeptin membranes; metal complexes nonradioactive Ga, In, Lu; read-out: hKiSSR Binding Ki (90 min)
pKi: −log10 of the molar value. Square brackets hold non-standard residues; d marks the D form. Peptide text beside a SMILES is read from it. * marks the point of attachment. DOTA = O=C(O)CN1CCN(CC(=O)O)CCN(CC(=O)*)CCN(CC(=O)O)CC1; Gly(N-(3-F-4-Me-benzyl)) = Cc1ccc(CNCC(=O)*)cc1F; Api(1-amidino) = N=C(N)N1CCC(N)(C(=O)O)CC1; Hydrocinnamoyl(4-Me) = Cc1ccc(CCC(=O)*)cc1; 4Pal = N[C@@H](Cc1ccncc1)C(=O)O; d4Pal = N[C@H](Cc1ccncc1)C(=O)O; Api = NC1(C(=O)O)CCNCC1; PEG2 = NCCOCCOCCC(=O)O; Ahx = NCCCCCC(=O)O; azaGly = NNC(=O)O
measured.quantity: pKi

{"compound": "Cc1ccc(CNCC(=O)N2CCC(NC(=O)[C@H](CC(C)C)NC(=O)NNC(=O)[C@H](Cc3ccccc3)NC(=O)[C@@H](NC(=O)[C@H](CC(N)=O)NC(=O)[C@@H](Cc3ccncc3)NC(=O)CCCCCNC(=O)CN3CCN(CC(=O)O)CCN(CC(=O)O)CCN(CC(=O)O)CC3)[C@@H](C)O)(C(=O)N[C@@H](Cc3ccncc3)C(N)=O)CC2)cc1F [Compound 295] ({DOTA-Ahx}-[d4Pal]NTF[azaGly]L[Api](Gly(N-(3-F-4-Me-benzyl)))[4Pal]-NH2)", "result": "> 8.00"}

Proceeding to the next compound to report its pKi.
Give the measured pKi for Cc1ccc(CCC(=O)NCCOCCOCCC(=O)N[C@H](Cc2ccc(O)cc2)C(=O)N[C@H](CCCCNC(=O)CN2CCN(CC(=O)O)CCN(CC(=O)O)CCN(CC(=O)O)CC2)C(=O)N[C@@H](CC(N)=O)C(=O)N[C@H](C(=O)N[C@@H](Cc2ccccc2)C(=O)NNC(=O)N[C@@H](CC(C)C)C(=O)NC2(C(=O)N[C@@H](Cc3c[nH]c4ccccc34)C(N)=O)CCN(C(=N)N)CC2)[C@@H](C)O)cc1 [Compound 338] ({Hydrocinnamoyl(4-Me)-PEG2}-[dY][dK](DOTA)NTF[azaGly]L[Api(1-amidino)]W-NH2)
> 8.00
